Target: Cholinesterase (Homo sapiens)
Sequence (P06276 whole entry): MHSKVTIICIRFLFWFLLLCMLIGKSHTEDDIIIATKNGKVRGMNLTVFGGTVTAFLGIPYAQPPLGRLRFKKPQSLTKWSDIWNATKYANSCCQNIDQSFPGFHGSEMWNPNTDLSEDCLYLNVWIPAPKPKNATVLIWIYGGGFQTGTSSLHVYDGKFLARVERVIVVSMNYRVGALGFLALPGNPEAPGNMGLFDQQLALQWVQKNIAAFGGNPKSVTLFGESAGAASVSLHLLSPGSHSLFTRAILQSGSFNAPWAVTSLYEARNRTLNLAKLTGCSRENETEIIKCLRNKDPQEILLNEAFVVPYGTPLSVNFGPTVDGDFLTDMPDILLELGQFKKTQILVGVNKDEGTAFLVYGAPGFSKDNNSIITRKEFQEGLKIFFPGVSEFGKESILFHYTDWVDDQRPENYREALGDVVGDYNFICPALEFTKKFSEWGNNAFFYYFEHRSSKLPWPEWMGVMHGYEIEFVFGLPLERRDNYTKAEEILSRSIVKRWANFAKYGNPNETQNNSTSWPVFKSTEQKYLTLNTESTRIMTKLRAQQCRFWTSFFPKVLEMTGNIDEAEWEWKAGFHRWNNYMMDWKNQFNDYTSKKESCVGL
metric: pIC50
Scale note: pIC50 = -log10(concentration in M).

Fill in the blank: the reported pIC50 of `O=c1c(NCCCCCCCc2c3c(nc4ccccc24)CCCC3)c(NCCCCCCCc2c3c(nc4ccccc24)CCCC3)c1=O` is ____.
7.68

Consider now this further molecule.
Consider the molecule `O=c1c(NCCCCc2c3c(nc4cc(Cl)ccc24)CCCC3)c(NCCCCc2c3c(nc4ccc(Cl)cc24)CCCC3)c1=O` and give its measured pIC50.
6.96

====

Biological target: Type-2 angiotensin II receptor (Homo sapiens)
Sequence (P50052 whole entry): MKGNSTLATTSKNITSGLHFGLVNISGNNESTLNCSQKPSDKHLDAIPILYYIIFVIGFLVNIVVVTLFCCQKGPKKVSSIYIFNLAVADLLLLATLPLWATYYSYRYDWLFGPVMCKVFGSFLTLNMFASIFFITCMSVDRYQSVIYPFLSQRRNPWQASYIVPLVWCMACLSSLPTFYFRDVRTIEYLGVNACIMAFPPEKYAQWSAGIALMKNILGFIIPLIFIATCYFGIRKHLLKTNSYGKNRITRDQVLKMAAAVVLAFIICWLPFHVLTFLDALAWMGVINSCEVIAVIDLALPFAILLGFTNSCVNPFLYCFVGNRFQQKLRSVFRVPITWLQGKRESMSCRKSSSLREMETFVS
metric: IC50
# do not omit the unit; it follows the number

Report IC50 for `O=c1c(O)c(-c2ccccc2-c2ccc(CNc3cc(C(F)(F)F)cc4c3CCCC4)cc2)c1=O` please.
25 nM

====

Recorded IC50 values for a group of compounds are listed next.
Target: C-X-C chemokine receptor type 1 (Homo sapiens)
Sequence (P25024 whole entry): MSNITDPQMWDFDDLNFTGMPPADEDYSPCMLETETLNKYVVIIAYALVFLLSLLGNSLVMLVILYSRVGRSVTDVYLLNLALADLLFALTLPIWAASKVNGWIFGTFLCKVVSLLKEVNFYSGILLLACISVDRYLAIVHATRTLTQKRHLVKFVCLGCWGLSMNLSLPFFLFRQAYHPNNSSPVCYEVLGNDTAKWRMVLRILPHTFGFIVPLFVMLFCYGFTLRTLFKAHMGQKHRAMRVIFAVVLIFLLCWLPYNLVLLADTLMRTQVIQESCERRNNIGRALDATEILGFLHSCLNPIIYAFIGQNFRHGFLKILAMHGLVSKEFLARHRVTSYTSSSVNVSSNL
Assay: Inhibition of human CXCR1
Report as a plain number; the unit nM is understood.

Need IC50, item `CCC(CC)Nc1c(Nc2cccc(C(=O)N(C)C)c2O)c(=O)c1=O`
15

Let us examine a further case.
# IC50 lookup, item `CC[C@@H](Nc1c(Nc2cccc(C(=O)N(C)C)c2O)c(=O)c1=O)c1ccccc1`
6.8

====

Test system: Leishmania braziliensis
Test: Antileishmanial activity against promastigote stage of Leishmania braziliensis MHOM/BR/1975/M2904 incubated for 72 hrs by Neubauer haemocytometric chamber analysis
Format: functional, organism-based
Settings: MHOM/BR/1975/M2904, 72 h
metric: IC50 (µM)
Respond numerically; units are µM and should not be typed.

Reported IC50, molecule `CCCCNc1c(N(C)CCCN(C)C)c(=O)c1=O` : ____
17.3

====

System: Urinary bladder
Test: Inhibition of KCL-induced contraction in rat urinary bladder
Type: functional, tissue-based
Details: Urinary bladder smooth muscle
metric: pIC50
Scale: pIC50 equals -log10([C]), with [C] in mol/L.

Please look up its pIC50: `CCc1cc(C#N)ccc1Nc1c(N[C@H](C)C(C)(C)C)c(=O)c1=O`
7.05
